experiment: qHTS assay to identify small molecule antagonists of the sonic hedgehog signaling (Shh) pathway (AID 1259369); details: NIH/3T3 Gli1-Luc reporter, Shh antagonist, luminescence 24 h; series mostly up to 92.4 µM; further: nearly all actives have a fitted effect of over 45% in size
Records with an inconclusive call do not appear. Active and inactive are the calls of the source. The call rests on the fitted dose curve.
Pick one: 1 = active, -1 = inactive

# COMPOUND, ANSWER LABEL
records = [
    ("Cc1ccc(C(C)c2ccc(C)c(C)c2)cc1C", -1),
]

Identify the outcome logged in this assay for the compound shown: CCOC(=O)[C@H](CCc1ccccc1)N[C@H]1CCc2ccccc2N(CC(=O)O)C1=O -1

Try O=C1c2cccc(O)c2C(=O)c2c(O)cc(CO)cc21 next. -1

Same lookup for CCCCCCCCCCCCCCC1CO1 (centres undefined) , please. -1

Same question, CCN(CC)C(C)=O this time -1

For Cc1cccc(Oc2ccccc2)c1 then? -1

# repeat for CCOC(=O)C1=NN(c2ccccc2)C(=O)C1 -1
